- Test system: BT-549
- Procedure Details: NCI tumour cell line growth inhibition, 48 h
Calls of active or inactive are those of the source. Cut-off read from the data, not from the text of the source: active = GI50 up to about 1.1 µM and inactive = higher.
Classes used: active, inactive

Molecule	Measurement Target	Answer Label
CC(=O)n1nc(-c2ccc3ccccc3c2)nc1C	BT-549	inactive
CC(NC(=O)/C(C#N)=C/c1ccc2[nH]ccc2c1)c1ccccc1 (configuration not stated)	BT-549	inactive
O=c1c(C(c2ccc3c(c2)Cc2ccccc2-3)c2c(O)oc3ccccc3c2=O)c(O)oc2ccccc12	BT-549	inactive
COc1ccc2c(c1)C1c3ccccc3CCN1CCC2 (configuration not stated)	BT-549	inactive
CN(C)c1ccc(/C=N/c2ccc(Oc3ccc(Cl)cc3)c(Cl)c2)cc1	BT-549	inactive
O=C1CC(O)c2c(Cl)sc(Cl)c21 (configuration not stated)	BT-549	inactive
O=C1N[C@H]2c3c(Cl)sc(Cl)c3[C@@H](O)[C@H]2O1	BT-549	inactive
COc1ccc(Nc2nc(N)c(C(=O)c3ccc(Cl)cc3)s2)cc1	BT-549	active
CN(C)c1cccc(F)c1C(=O)NC(=O)Nc1ccc(Cl)cc1	BT-549	inactive
CCN(CC)c1c(N(CC)CC)c(=O)c1=O	BT-549	inactive
Cc1ccc(Sc2ccccc2C23OC(C)(C4C(=O)N(c5ccccc5)C(=O)C42)N(C)C3=O)cc1 (configuration not stated)	BT-549	inactive
C=CC[C@H](O)[C@@](NC(=O)OCc1ccccc1)(Sc1ccc(C)cc1)C(F)(F)F	BT-549	inactive
